# procedure_text: Half-life in Sprague-Dawley rat at 20 mg/kg, po administered as single dose and measured after 0.25 to 24 hrs by HPLC analysis
# Assay type: ADME, organism-based
# assay_conditions: in vivo
measured_parameter: half-life
Returns: string containing the numeric result and its unit.

// query Find the recorded half-life belonging to C[C@H](Cn1cnc2c(N)ncnc21)OCP(=O)(O)O [TENOFOVIR ANHYDROUS] and report it.
// result 3.56 h

----------
# procedure_text: Tmax in Sprague-Dawley rat at 20 mg/kg, po administered as single dose and measured after 0.25 to 24 hrs by HPLC analysis
# Assay type: ADME, organism-based
# assay_conditions: in vivo
measured_parameter: Tmax
Answer with the number, then the unit.

// query Quick check: Tmax of C[C@H](Cn1cnc2c(N)ncnc21)OCP(=O)(O)O [TENOFOVIR ANHYDROUS] ?
// result 50 min

----------
# procedure_text: Cytotoxicity against human HepG2.2.15 cells infected with HBV
# Assay type: cell-based, HepG2 2.2.15
Hi! Just check whether CC50 is below 200 µM. Below gives MET, equal or above gives NOT MET.

The examples below pair each entry with its known result.
1. C[C@H](Cn1cnc2c(N)ncnc21)OCP(=O)(OCCOC(=O)[C@@H](N)Cc1ccccc1)OCCOC(=O)[C@@H](N)Cc1ccccc1 | NOT MET
2. CC[C@H](C)[C@H](N)C(=O)OCCOP(=O)(CO[C@H](C)Cn1cnc2c(N)ncnc21)OCCOC(=O)[C@@H](N)[C@@H](C)CC | NOT MET
3. CC(C)[C@H](N)C(=O)OCOP(=O)(CO[C@H](C)Cn1cnc2c(N)ncnc21)OCOC(=O)[C@@H](N)C(C)C.Cl | MET
4. CC[C@H](C)[C@H](N)C(=O)OCCCOP(=O)(CO[C@H](C)Cn1cnc2c(N)ncnc21)OCCCOC(=O)[C@@H](N)[C@@H](C)CC | NOT MET
5. C[C@H](Cn1cnc2c(N)ncnc21)OCP(=O)(O)O [TENOFOVIR ANHYDROUS] | NOT MET

// query Confirm or reject: CC50 of CC(C)OC(=O)OCOP(=O)(CO[C@H](C)Cn1cnc2c(N)ncnc21)OCOC(=O)OC(C)C.O=C(O)/C=C/C(=O)O [TENOFOVIR DISOPROXIL FUMARATE] lies strictly below 200 µM
// result MET

// query // same read-out, input: `CC(C)C[C@H](N)C(=O)OCCOP(=O)(CO[C@H](C)Cn1cnc2c(N)ncnc21)OCCOC(=O)[C@@H](N)CC(C)C`
// result NOT MET

// query Item: `CC(C)[C@H](N)C(=O)OCCCOP(=O)(CO[C@H](C)Cn1cnc2c(N)ncnc21)OCCCOC(=O)[C@@H](N)C(C)C`
// result MET

// query Same read-out for `CC(C)[C@H](N)C(=O)OCCOP(=O)(CO[C@H](C)Cn1cnc2c(N)ncnc21)OCCOC(=O)[C@@H](N)C(C)C` ?
// result NOT MET

// query // same read-out, input: `Nc1ccn([C@@H]2CS[C@H](CO)O2)c(=O)n1`
// result NOT MET

// query What do we get for `CC(C)C[C@H](N)C(=O)OCCCOP(=O)(CO[C@H](C)Cn1cnc2c(N)ncnc21)OCCCOC(=O)[C@@H](N)CC(C)C` ?
// result NOT MET

----------
# System: Hepatitis B virus
# procedure_text: Antiviral activity against HBV infected in human HepG2.2.15 cells assessed as reduction in cytoplasmic DNA synthesis by reed and munch method
# Type: functional, organism-based
measured_parameter: IC50

Answered cases to consult:
1) CC[C@H](C)[C@H](N)C(=O)OCCCOP(=O)(CO[C@H](C)Cn1cnc2c(N)ncnc21)OCCCOC(=O)[C@@H](N)[C@@H](C)CC | > 49.6 µM
2) C[C@H](Cn1cnc2c(N)ncnc21)OCP(=O)(OCCOC(=O)[C@@H](N)Cc1ccccc1)OCCOC(=O)[C@@H](N)Cc1ccccc1 | 2.93 µM

Kindly consider the entry below.
// query I'd like to know its IC50. The molecule in question is `CC(C)C[C@H](N)C(=O)OCCOP(=O)(CO[C@H](C)Cn1cnc2c(N)ncnc21)OCCOC(=O)[C@@H](N)CC(C)C`
// result > 13 µM

----------
# procedure_text: Cmax in Sprague-Dawley rat at 20 mg/kg, po administered as single dose and measured after 0.25 to 24 hrs by HPLC analysis
# Format: ADME, organism-based
# Set-up: dose 20 mg/kg, route oral
# assay_conditions: in vivo
measured_parameter: Cmax (µg/mL)
Numbers only, in µg/mL.

// query Can you look up the measured Cmax of C[C@H](Cn1cnc2c(N)ncnc21)OCP(=O)(O)O [TENOFOVIR ANHYDROUS] for me?
// result 0.207

----------
# procedure_text: AUC(0 to infinity) in Sprague-Dawley rat at 20 mg/kg, po administered as single dose and measured after 0.25 to 24 hrs by HPLC analysis
# Format: ADME, organism-based
# Parameters: dose 20 mg/kg, time infinity, route oral
# assay_conditions: in vivo
measured_parameter: AUC(0-inf) (ng·h/mL)
Give bare numbers, in ng·h/mL.

// query # AUC(0-inf) lookup, item C[C@H](Cn1cnc2c(N)ncnc21)OCP(=O)(O)O [TENOFOVIR ANHYDROUS]
// result 888

----------
# procedure_text: AUC(0 to infinity) in Sprague-Dawley rat at 5 mg/kg, iv
# Format: ADME, organism-based
# Set-up: dose 5 mg/kg, route intravenous, time infinity
# assay_conditions: in vivo
measured_parameter: AUC(0-inf) (ng·h/mL)
Give bare numbers, in ng·h/mL.

// query Please look up its AUC(0-inf): C[C@H](Cn1cnc2c(N)ncnc21)OCP(=O)(O)O [TENOFOVIR ANHYDROUS]
// result 15800

----------
# procedure_text: Oral bioavailability in Sprague-Dawley rat at 20 mg/kg administered as single dose and measured after 0.25 to 24 hrs by HPLC analysis
# Format: ADME, organism-based
# assay_conditions: in vivo
measured_parameter: bioavailability (%)
Numbers only, in %.

// query Request the reported bioavailability associated with C[C@H](Cn1cnc2c(N)ncnc21)OCP(=O)(O)O [TENOFOVIR ANHYDROUS]
// result 1.41

----------
# System: Hepatitis B virus
# procedure_text: Antiviral activity against HBV infected in human HepG2.2.15 cells assessed as reduction in cytoplasmic DNA synthesis by reed and munch method
# Assay type: functional, organism-based
Kindly supply the reported pIC50 values for the records listed here.
Give bare numbers, as −log10 of the molar value.

// below: answered compounds
1) CC(C)OC(=O)OCOP(=O)(CO[C@H](C)Cn1cnc2c(N)ncnc21)OCOC(=O)OC(C)C.O=C(O)/C=C/C(=O)O [TENOFOVIR DISOPROXIL FUMARATE] | 6.07
2) C[C@H](Cn1cnc2c(N)ncnc21)OCP(=O)(O)O [TENOFOVIR ANHYDROUS] | 4.80
3) CC[C@H](C)[C@H](N)C(=O)OCCOP(=O)(CO[C@H](C)Cn1cnc2c(N)ncnc21)OCCOC(=O)[C@@H](N)[C@@H](C)CC | 4.91
4) Nc1ccn([C@@H]2CS[C@H](CO)O2)c(=O)n1 | 5.65
5) CC(C)C[C@H](N)C(=O)OCCCOP(=O)(CO[C@H](C)Cn1cnc2c(N)ncnc21)OCCCOC(=O)[C@@H](N)CC(C)C | 5.37

Your task in this section: give pIC50 for each listed record.
1. CC(C)[C@H](N)C(=O)OCCOP(=O)(CO[C@H](C)Cn1cnc2c(N)ncnc21)OCCOC(=O)[C@@H](N)C(C)C
2. CC(C)[C@H](N)C(=O)OCOP(=O)(CO[C@H](C)Cn1cnc2c(N)ncnc21)OCOC(=O)[C@@H](N)C(C)C.Cl

// result
[5.59, 6.15]

----------
Please go through the items and note down their selectivity ratio.
# procedure_text: Selectivity index, ratio of CC50 for human HepG2.2.15 cells to IC50 for HBV infected in human HepG2.2.15 cells
# Assay type: toxicity, cell-based
# assay_conditions: read-out: Ratio CC50/IC50
Numbers only.

1) CC(C)OC(=O)OCOP(=O)(CO[C@H](C)Cn1cnc2c(N)ncnc21)OCOC(=O)OC(C)C.O=C(O)/C=C/C(=O)O [TENOFOVIR DISOPROXIL FUMARATE] | 24

// for each molecule in input: emit selectivity ratio
1. CC(C)[C@H](N)C(=O)OCCOP(=O)(CO[C@H](C)Cn1cnc2c(N)ncnc21)OCCOC(=O)[C@@H](N)C(C)C
2. CC(C)[C@H](N)C(=O)OCOP(=O)(CO[C@H](C)Cn1cnc2c(N)ncnc21)OCOC(=O)[C@@H](N)C(C)C.Cl
3. CC(C)C[C@H](N)C(=O)OCCCOP(=O)(CO[C@H](C)Cn1cnc2c(N)ncnc21)OCCCOC(=O)[C@@H](N)CC(C)C
4. CC[C@H](C)[C@H](N)C(=O)OCCOP(=O)(CO[C@H](C)Cn1cnc2c(N)ncnc21)OCCOC(=O)[C@@H](N)[C@@H](C)CC
5. C[C@H](Cn1cnc2c(N)ncnc21)OCP(=O)(O)O [TENOFOVIR ANHYDROUS]
6. C[C@H](Cn1cnc2c(N)ncnc21)OCP(=O)(OCCOC(=O)[C@@H](N)Cc1ccccc1)OCCOC(=O)[C@@H](N)Cc1ccccc1

// result
84
80
47
24
27
97
